B1: library; a variant is named by its letters at N, in order (parent)
chain: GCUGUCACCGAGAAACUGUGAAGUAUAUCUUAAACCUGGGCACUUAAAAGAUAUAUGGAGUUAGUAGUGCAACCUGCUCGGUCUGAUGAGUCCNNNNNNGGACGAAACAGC

- Variants of: B1
- Procedure text: normalized RNA/DNA level with ligand (relative to sTRSVctl = 100) (log10 (% of sTRSVctl)); HEK293T; ligand: cyclic di-GMP (c-di-GMP-II aptamer); ligand concentration (+) RNA-Seq: 1 mM; higher = less ribozyme self-cleavage, higher mRNA level
- Condition set: reporter: mCherry (pCS4076), ligand present: yes
Parameter: normalized RNA/DNA level with ligand (log10)
Response field accepts a number only; no unit should be typed.

Below, 5 variants whose answers are already recorded.
mutation_key=GAUACC recorded_result=1.89
mutation_key=ACCCUC recorded_result=1.91
mutation_key=AACUGA recorded_result=1.68
mutation_key=AAGUGU recorded_result=1.76
mutation_key=UUAUGG recorded_result=1.85

Item CCUAGG has what recorded normalized RNA/DNA level with ligand (log10)?
1.84

Item UUUUUA has what recorded normalized RNA/DNA level with ligand (log10)?
1.92

Item CCCUUC has what recorded normalized RNA/DNA level with ligand (log10)?
1.86

Item AGUUUA has what recorded normalized RNA/DNA level with ligand (log10)?
1.72

Item GUUGUC has what recorded normalized RNA/DNA level with ligand (log10)?
1.73

Item CAUUCC has what recorded normalized RNA/DNA level with ligand (log10)?
1.87

Item UAGUUU has what recorded normalized RNA/DNA level with ligand (log10)?
1.85

Item UCUUUU has what recorded normalized RNA/DNA level with ligand (log10)?
1.84

Item UCAAUU has what recorded normalized RNA/DNA level with ligand (log10)?
1.77

Item CCCAGU has what recorded normalized RNA/DNA level with ligand (log10)?
1.86

Item GUGUGA has what recorded normalized RNA/DNA level with ligand (log10)?
1.67

Item UCUGGU has what recorded normalized RNA/DNA level with ligand (log10)?
1.81

Item AGCAUC has what recorded normalized RNA/DNA level with ligand (log10)?
1.88

Just for reference, the supplement of paper PMC6757056 is where these values come from.
